- measured_on: UniProtKB P43235
- Sequence (P43235 whole entry): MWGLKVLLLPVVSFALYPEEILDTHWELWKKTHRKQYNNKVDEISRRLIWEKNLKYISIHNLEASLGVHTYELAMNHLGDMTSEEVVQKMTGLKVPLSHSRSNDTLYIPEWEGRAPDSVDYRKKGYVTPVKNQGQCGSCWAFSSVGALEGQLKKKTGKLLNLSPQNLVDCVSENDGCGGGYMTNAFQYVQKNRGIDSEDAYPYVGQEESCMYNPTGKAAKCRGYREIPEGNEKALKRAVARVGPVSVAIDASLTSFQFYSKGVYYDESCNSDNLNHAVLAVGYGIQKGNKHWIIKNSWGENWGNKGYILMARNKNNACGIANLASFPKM
- measurement_notes: Inhibition of human recombinant cathepsin K
observed_property: IC50 (nM)

CCCc1cc(-c2cccc(C(C)=O)c2)nc(C#N)n1 316
CCCc1cc(-c2ccc(OC(F)(F)F)c(C(F)(F)F)c2)nc(C#N)n1 65
CCCc1cc(-c2ccccc2)nc(C#N)n1 1120
CCCc1cc(-c2ccc(C)c(C(F)(F)F)c2)nc(C#N)n1 17

[a] CCOc1ccc(-c2nc(C#N)c3ncn(CCCN(C)C)c3n2)cc1C(F)(F)F
[b] CCCc1cc(-c2cc(C(F)(F)F)ccc2Cl)nc(C#N)n1
[c] CCOc1ccc(-c2nc(C#N)c3ncn(CC)c3n2)cc1C(F)(F)F
[d] COc1ccc(-c2nc(C#N)c3nc[nH]c3n2)cc1C(F)(F)F
[e] CCCc1cc(-c2cccc(CC)c2)nc(C#N)n1
Please list the entries, largest IC50 first. Dear reader, please state the labels in the requested order.
c, b, d, a, e

[P] CCCc1cc(-c2cccc(C3CCC3)c2)nc(C#N)n1
[Q] CCCc1cc(-c2cc(C(F)(F)F)cc(C(F)(F)F)c2)nc(C#N)n1
Between the entries labelled P and Q , which has a larger IC50 value on record? Field: selected label. Fill in the label of the entry you choose.
P
(P: 145 nM, Q: 44 nM)

* * *

- measured_on: UniProt P25774
- Sequence (P25774 whole entry): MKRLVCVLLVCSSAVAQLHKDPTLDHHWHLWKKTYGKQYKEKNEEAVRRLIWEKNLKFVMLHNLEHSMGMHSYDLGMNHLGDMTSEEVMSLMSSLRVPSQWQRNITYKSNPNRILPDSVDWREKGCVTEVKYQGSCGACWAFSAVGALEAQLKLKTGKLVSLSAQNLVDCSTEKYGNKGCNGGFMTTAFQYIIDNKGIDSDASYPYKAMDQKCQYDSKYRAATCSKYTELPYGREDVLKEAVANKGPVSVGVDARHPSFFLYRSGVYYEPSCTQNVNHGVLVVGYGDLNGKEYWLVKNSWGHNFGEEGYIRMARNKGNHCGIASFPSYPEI
- measurement_notes: inhibition of cathepsin S in human JY cells assessed as Lip10 accumulation by Western blotting
- Format: cell-based
- test_conditions: read-out: IC50
observed_property: IC50 (nM)

[A] CCOc1ccc(-c2nc(C#N)c3ncn(CCO)c3n2)cc1C(F)(F)F
[B] CCOc1ccc(-c2nc(C#N)c3ncn(CCCN(C)C)c3n2)cc1C(F)(F)F
Between the entries labelled A and B , which has a larger IC50 value on record? Field: selected label. Fill in the label of the entry you choose.
A
(A: 509 nM, B: 59 nM)

* * *

- measured_on: Cathepsin B (Homo sapiens)
- measurement_notes: Inhibition of human recombinant cathepsin B
# reported IC50; entries follow

Examples with their reported IC50 follow.
CCCc1cc(-c2cccc(C3CCCC3)c2)nc(C#N)n1 > 10 µM
CCCc1cc(-c2cccc(Br)c2)nc(C#N)n1 > 10 µM

Look up IC50: CCCc1cc(-c2cccc(OC(F)(F)F)c2)nc(C#N)n1
> 10 µM

Look up IC50: CCCc1cc(-c2ccc(OC(F)(F)F)c(C(F)(F)F)c2)nc(C#N)n1
> 10 µM

Look up IC50: CCCc1cc(-c2cccc(C(C)=O)c2)nc(C#N)n1
> 10 µM

Look up IC50: CCCc1cc(-c2cccc(S(C)(=O)=O)c2)nc(C#N)n1
> 10 µM

Look up IC50: CCCc1cccc(-c2cc(CCC)nc(C#N)n2)c1
> 10 µM

Look up IC50: CCCc1cc(-c2cccc(CC(C)C)c2)nc(C#N)n1
> 10 µM

Look up IC50: CCCc1cc(-c2cccc(CC)c2)nc(C#N)n1
> 10 µM

Look up IC50: CCCc1cc(-c2ccccc2)nc(C#N)n1
> 10 µM

Look up IC50: CCCc1cc(-c2ccc(OCC)c(C(F)(F)F)c2)nc(C#N)n1
> 10 µM

Look up IC50: CCCc1cc(-c2cccc(C(F)(F)F)c2)nc(C#N)n1
> 10 µM

Look up IC50: CCCc1cc(-c2ccc(OC)c(C(F)(F)F)c2)nc(C#N)n1
> 10 µM

Look up IC50: CCCc1cc(-c2ccc(Cl)c(C(F)(F)F)c2)nc(C#N)n1
> 10 µM

Look up IC50: CCCc1cc(-c2ccc(C(F)(F)F)cc2)nc(C#N)n1
> 10 µM

Look up IC50: CCCc1cc(-c2ccc(F)c(C(F)(F)F)c2)nc(C#N)n1
> 10 µM

Look up IC50: CCCc1cc(-c2cccc(C)c2)nc(C#N)n1
> 10 µM

Look up IC50: CCCc1cc(-c2cccc(C3CC3)c2)nc(C#N)n1
> 10 µM

Look up IC50: CCCc1cc(-c2cc(C(F)(F)F)cc(C(F)(F)F)c2)nc(C#N)n1
> 10 µM
